B1: NCK2 (parent)
chain: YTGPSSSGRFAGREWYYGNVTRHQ

- Variants of: B1
- protocol_description: protein stability index of a GFP-peptide fusion (GPS, HEK-293T) (PSI 1-6); higher = more stable;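 further: lentivirally expressed fusions sorted by FACS into six bins by GFP to DsRed ratio, PSI derived from sequencing read proportions per bin multiplied by bin number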
- condition_summary: c terminus: a fixed tail appended
Kindly state protein stability index for each of the entries shown.
Give bare numbers.

Past entries and their recorded results:
R22C 1.7
R9F 4.5

For each of the variants below, note its protein stability index.
1. W15G
2. Y1A
3. A11I
4. T2N
5. R22Y
6. W15T

Result string:
2.82
3.25
1.55
2.19
2.17
2.28

Please state protein stability index for every variant in the list that follows.
1. P4V
2. R9Y
3. Y17K
4. Y16S

Result string:
1: 1.36; 2: 1.73; 3: 1.91; 4: 2.33

Parameters: items (list). Returns: protein stability index for each item.
1. Q24H
2. E14G
3. S5A
4. S6A

Result string:
[1.85, 1.69, 2.6, 2.09]
